- Target system: Salicylate synthase (Mycobacterium tuberculosis (strain CDC 1551 / Oshkosh)) (UniProt P9WFX0)
- Sequence (P9WFX0 whole entry, looked up): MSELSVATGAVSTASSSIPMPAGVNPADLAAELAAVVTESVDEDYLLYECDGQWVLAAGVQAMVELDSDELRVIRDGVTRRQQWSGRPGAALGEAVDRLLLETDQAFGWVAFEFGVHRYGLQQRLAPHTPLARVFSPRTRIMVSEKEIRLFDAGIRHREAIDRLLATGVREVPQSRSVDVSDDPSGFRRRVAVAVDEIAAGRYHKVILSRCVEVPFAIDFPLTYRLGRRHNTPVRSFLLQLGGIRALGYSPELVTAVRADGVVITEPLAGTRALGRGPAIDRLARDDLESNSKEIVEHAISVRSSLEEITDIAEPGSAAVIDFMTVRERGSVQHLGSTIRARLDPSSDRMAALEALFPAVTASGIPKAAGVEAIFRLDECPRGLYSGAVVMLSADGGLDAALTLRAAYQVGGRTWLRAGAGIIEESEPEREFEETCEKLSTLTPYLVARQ
- Procedure summary: inhibitors of M. tuberculosis MbtI – biochemical, fluorescence intensity, primary screen (AID 493033)
- Settings: purified MbtI enzyme, fluorescence intensity read-out, stronger effect = higher value, concentration not given here
In all, about 100,000 compounds went through this assay and about 930 (0.93%) were called active. The full list was thinned out, with actives kept by preference.
Outcome measure: inhibition (%)
Give bare numbers, in %.

Worked cases, inhibition given:
Compound | inhibition / %
CC1=C(C(=O)Nc2cccc(C(F)(F)F)c2)C(c2ccc3c(c2)OCO3)NC(=O)N1 (stereo not drawn) | 5.1
CC(O)CNc1nc2ccccc2n1CC(O)COCc1ccco1 (stereo not drawn) | -2.1
Cc1occc1-c1nnc2n1N=C(c1ccc(-c3cc(Cl)ccc3Cl)o1)CS2 | 98

Required: inhibition, one value per compound below.
1. COC(=O)c1ccc(CSCC(=O)Nc2ccc(C)c(C)c2)o1
2. CCN(CC)c1ccc(C=C(C#N)C#N)c(OC(C)=O)c1
3. O=c1[nH][nH]c(=O)c2cc(N3CCCC3)ccc12
4. CSC(=S)Nc1ccc(C)cc1
5. CCOC(=O)Cc1n[nH]c(=S)n1C1CCCC1
6. Cc1cc(C)nc(NNC(=S)Nc2ccc(S(=O)(=O)N3CCOCC3)cc2)n1
7. O=C(C1=Cc2sc3c(c2CS1)CCCC3)N1CCCC1
8. CCCCn1c2c(c(=O)n(C)c1=O)C(c1ccc(OC)cc1)C1=C(CCCC1=O)N2 (stereo not drawn)

Resp:
1. -3.9
2. -99.2
3. -10.9
4. -4.35
5. 13.4
6. 54.5
7. 98.8
8. -21

Take each entry in turn and give its inhibition.
1. O=C(c1ccco1)N1CCN(C(=O)c2cnn(-c3ccccc3)c2-n2cccc2)CC1
2. CCN1CCN(CCCNC(=S)Nc2ccc3nc(N4CCN(CC)CC4)cc(C)c3c2)CC1
3. CN(C)c1ccc(-c2ncnn2-c2ccccc2)cc1
4. COc1ccc(OCCCC(=O)NNc2ccccc2)cc1

Resp:
[-6.6, 35.8, -9.6, -1.15]

Working through the 3 compounds below one at a time, give inhibition for each.
1. Cc1csc(NC(=O)C2CCC(CNS(=O)(=O)c3cccc4nsnc34)CC2)n1 (stereo not drawn)
2. O=C1c2ccccc2C(=O)N1CNc1ccccc1C1CC1
3. O=C(O)Cc1cn(-c2ccccc2)nc1-c1cccs1

Resp:
1: -0.3; 2: -16.8; 3: -32.5

###

- Target system: Salicylate synthase (Mycobacterium tuberculosis (strain CDC 1551 / Oshkosh))
- Procedure summary: inhibitors of M. tuberculosis MbtI – biochemical, fluorescence intensity, primary screen (AID 493033)
- Settings: purified MbtI enzyme, fluorescence intensity read-out, stronger effect = higher value, concentration not given here
Out of some 100,000 compounds screened, about 930 (0.93%) were called active. Many of the other results were omitted from the sample, so actives are more common in it than they were.
Outcome measure: inhibition (%)
Answers are plain numbers, in %.

Here are 8 compounds together with their reported answers.
Compound | Data value
O=C(COC(=O)/C=C/c1cccs1)Nc1ncc(Br)s1 | 0.8
COc1ccc(CC(=O)Nc2ccccc2)cc1 | -14.4
CCCc1cc(=O)[nH]c(SCc2ccc(C#N)cc2)n1 | -3.9
S=C(NCCc1ccc(Cl)cc1)Nc1ccccc1 | -14.1
COC(=O)c1cccc(NC(=O)CCCN2C(=O)c3ccccc3C2=O)c1 | -11.5
COc1ccc(Cc2n[nH]c(=S)n2NC(=O)Nc2ccc(C)cc2)cc1 | 92.9
N/C(COc1ccccc1)=N\O | -4.9
CNCC(=O)Nc1ccc(OC)cc1 | -7.3

Required: inhibition, one value per compound below.
1. Oc1cc2c(cc1O)CN(C(=S)NCCc1ccc(Cl)cc1)CCC2
2. CCOC(=O)C1=C(C)NC(C)=C(C(=O)OCC)C1C(=O)OCc1cc(=O)n2cc(C)ccc2n1
3. CCc1ccccc1NC(=O)CSc1nc2c(c(=O)[nH]1)CCC2
4. Cc1ccc(NC(=O)CN2C(=O)OC(C)(C)C2(C)O)cc1 (configuration not stated)

Resp:
1: 100; 2: -9.2; 3: 9.6; 4: -10
